Every entry's value here was drawn from PubChem BioAssay (Tox21).

Experimental Details: qHTS assay to identify small molecule agonists of the androgen receptor (AR) signaling pathway in the presence of an antagonist - cell viability counter screen (AID 1259379);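 further: MDA-kb2 human breast cancer cells carrying an MMTV luciferase reporter; on the % scale 0 is the no-effect control and ±100 the full control effect; nearly all actives have a fitted effect of over 25% in size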
Condition: MDA-kb2 viability, CellTiter-Fluor, 16 h; series mostly up to 92.4 µM
Source text: National Center for Advancing Translational Sciences [NCATS] NIH Chemical Genomics Center [NCGC] U.S. Environmental Protection Agency [EPA] National Institutes of Environmental Health Sciences [NIEHS] National Toxicology Program [NTP] U.S. Food and Drug Administration [FDA] Androgen receptor (AR) is an important member of nuclear receptor family. Its signaling plays a critical role in AR-dependent prostate cancer and other androgen related diseases. […]
Records with an inconclusive call do not appear. Calls of active or inactive are those of the source. The call rests on the fitted dose curve; in most records, active means well fitted cell-killing curve with a large enough effect in the repeat runs; inconclusive means weak or mixed curves, or effect the other way; inactive means flat fitted curve, though single readings scatter.
Test Readout: activity change, negative = cytotoxicity

Please review the following examples before continuing.
- Compound: "O=C(O)CN(CCCN(CC(=O)O)CC(=O)O)CC(=O)O"
  activity change, negative = cytotoxicity: "-2.17% [at 19 µM] (inactive)"
- Compound: "CCCCCCCCCCCCS(=O)(=O)Cl"
  activity change, negative = cytotoxicity: "2.74% [at 19 µM] (inactive)"
- Compound: "O=C(O)C[C@H](O)C[C@H](O)/C=C/c1c(C2CC2)nc2ccccc2c1-c1ccc(F)cc1"
  activity change, negative = cytotoxicity: "0.182% [at 19 µM] (inactive)"
- Compound: "C=C[Si](C)(C)Cl"
  activity change, negative = cytotoxicity: "-1.9% [at 8.39 µM] (inactive)"

Attention now shifts to the item below.
Query block: Would you kindly share the measured activity change, negative = cytotoxicity for C=CC(=O)OCCOC1C2CCC1C1CC=CC12 (stereo not given) ?
Result block: -6.73% [at 19 µM] (inactive)

* * *

Experimental Details: qHTS assay to identify small molecule agonists of the farnesoid-X-receptor (FXR) signaling pathway - cell viability counter screen (AID 743218); further: nearly all actives have a fitted effect of over 45% in size
Condition: FXR-bla HEK293T viability, CellTiter-Glo luminescence, 16 h; series mostly up to 62.6 µM
Records with an inconclusive call do not appear. Activity calls are given as the source filed them. Calls come from the whole dose curve; as a rule, active = well fitted cell-killing curve with a large enough effect in the repeat runs; inconclusive = weak or mixed curves, or effect the other way; inactive = no such curve, though single readings can be large or run the other way.
Classes to choose from: True = active, False = inactive

Please review the following examples before continuing.
- Molecule: "O=C(CCN1CCC(c2ccccc2)C1)c1ccc2c(c1)OCCO2 (stereo unspecified)"
  Label: "False"
- Molecule: "N#Cc1nc(Cl)c(Cl)c(Cl)c1Cl"
  Label: "True"
- Molecule: "CN1CC[C@H](c2c(O)cc(O)c3c(=O)cc(-c4ccccc4Cl)oc23)[C@H](O)C1"
  Label: "False"

Query block: For O=C1CCCCCCCCCCCCCC1 , which call appears in the assay record?
Result block: False

* * *

Test System: Cytochrome P450 2D6 (Homo sapiens)
Experimental Details: Cytochrome P450 Family 2 Subfamily D Member 6 (CYP2D6) small molecule antagonists: luciferase reporter qHTS assay (AID 1671196); further: nearly all actives have a fitted effect of over 50% in size
Condition: P450-Glo CYP2D6 enzyme assay, luciferin luminescence, 1 h; series mostly up to 115 µM
Description: U.S. Tox21 Program National Center for Advancing Translational Sciences [NCATS] U.S. Environmental Protection Agency [EPA] National Institutes of Environmental Health Sciences [NIEHS] National Toxicology Program [NTP] U.S. Food and Drug Administration [FDA] […] The luciferin products formed are detected with a luciferin detection reagent, and the amount of light produced is proportional to CYP activity. […]
Results filed as inconclusive are left out. Activity calls are given as the source filed them. The call rests on the fitted dose curve; in most records, active means well fitted inhibition curve with a large enough effect in the repeat runs; inconclusive means weak or mixed curves; inactive means no such curve, though single readings can be large or run the other way.
Classes to choose from: 1 (active), 0 (inactive)

Please review the following examples before continuing.
- Compound: "CCCCCCCCCCCC(=O)Cl"
  Label: 0
- Compound: "CCC(C)(C)c1ccc(CC(C)CN2C[C@@H](C)O[C@@H](C)C2)cc1 (some centres undefined)"
  Label: 1
- Compound: "c1ccc2cc3c4ccccc4c4ccccc4c3cc2c1"
  Label: 0
- Compound: "Nc1ccc2c(S(=O)(=O)O)cccc2c1S(=O)(=O)O"
  Label: 0
- Compound: "O=[N+]([O-])c1ccc(CO)cc1"
  Label: 0

Query block: For CCOC(=O)[C@H](O)[C@@H](O)C(=O)OCC , which call appears in the assay record?
Result block: 0

Query block: For CCN(CC)c1ccc(C=O)c(O)c1 , which call appears in the assay record?
Result block: 0

Query block: For C=Cc1ccncc1 , which call appears in the assay record?
Result block: 0

Query block: For CCc1cccc(CC)c1 , which call appears in the assay record?
Result block: 0

Query block: For Cc1cc(C)c(O)c(C(C)(C)C)c1 , which call appears in the assay record?
Result block: 0
